Every entry's value here was drawn from the supplement of paper PMC10567573.

Test: protein stability index of a GFP-peptide fusion (GPS, HEK-293T) (PSI 1-6); higher = more stable;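 note: 24-mer peptide tiles fused after GFP, lentivirally expressed, FACS-sorted into six equal bins by GFP/DsRed ratio, decoded by Illumina sequencing, PSI is the read-weighted mean bin number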
Conditions: treatment: MLN4924 1 uM, 8 h; c terminus: a fixed tail appended
This listing pairs sequences with measured protein stability index.
measureName: protein stability index

- recordSequence: "GKAYRFLFGFSAVSIMYLVLVLAV [JAGN1]"
  observedResult: 2.12
- recordSequence: "CREPSPKMDFKTNILLKNLVTIAR [TRIM43]"
  observedResult: 2.35
- recordSequence: "ECLKKFNARRKLKGAILTTMLATR [CAMK2B]"
  observedResult: 2.94
- recordSequence: "ENLDNDTETDSLVSAQRERPRRRD [DVL3]"
  observedResult: 5.41
- recordSequence: "MLQATAEANNLAAAASAKDIYYNN [ATL3]"
  observedResult: 3.44
- recordSequence: "EEERAQDRIATTDDTTAMASASSS [MAGEA10]"
  observedResult: 5.42
- recordSequence: "PATEEQEAASSSSTLVEVTLGEVP [MAGEA3]"
  observedResult: 5.51
- recordSequence: "LLDKTCDQVMEFSWSALWNITDET [ZER1]"
  observedResult: 2.35
- recordSequence: "MQAQASIEGAPEVTMSSLFKHILR [SLC25A25]"
  observedResult: 2.14
- recordSequence: "IELQGVPNDEVHPLLGVKGDGKSK [RBBP5]"
  observedResult: 4.96
- recordSequence: "KQDVLGPSTTPPAHSSSNTIRSGI [SASS6]"
  observedResult: 4.63
- recordSequence: "VQKLVKVCTDTDRWSLISLSNKNG [TENT5C]"
  observedResult: 2.85
- recordSequence: "SHAGKVVLRSWYEKNKHIFPASRW [FAM50A]"
  observedResult: 2.58
- recordSequence: "LRDDVLCARMLYNYGADTNTRNYE [ASB7]"
  observedResult: 2.86
- recordSequence: "WGDLLGEDSLAALSSVPSEAQISD [SNAP91]"
  observedResult: 4.71
- recordSequence: "CSNLVKTRRRAVGWWKRLFTLKEE [ARL6IP1]"
  observedResult: 2.6
- recordSequence: "KQLLDSKIGFEIGIENEEDTSKQK [ZNF449]"
  observedResult: 5.26
- recordSequence: "RLELERKIESLMDEIEFLKKLHEE [PRPH]"
  observedResult: 3.44
- recordSequence: "STSFRVYIMAFDIKSEDMLKILKP [FBXO33]"
  observedResult: 3.02
- recordSequence: "SYSTQASAAAATAELLKKQEELNR [SCAMP3]"
  observedResult: 5.03
- recordSequence: "CPCCFGRDCLVLNQGYLSEAGASL [PI4K2A]"
  observedResult: 2.62
- recordSequence: "LHTDVGSVRMRRAEKSVAPSNTGS [NEK8]"
  observedResult: 4.73
- recordSequence: "TRGFLRSPSSDLDTDAEGDDFELL [RETREG3]"
  observedResult: 5.29
- recordSequence: "EIFAIDLRCGNQGKGWKATRLFHD [DCAF4]"
  observedResult: 2.12
- recordSequence: "PEGSLSQTMAGSSPNTPQPVPEQS [FAM104A]"
  observedResult: 5.45
- recordSequence: "PESLNSPVSGKAVFMEFGPPNQQM [DLX1]"
  observedResult: 3.92
- recordSequence: "SQMPPPAGGTSDDPEPSGPHLPRV [SCNN1D]"
  observedResult: 5.43

###

Assay: protein stability index of a GFP-peptide fusion (GPS, HEK-293T) (PSI 1-6); higher = more stable
Conditions: treatment: DMSO; c terminus: a fixed tail appended
Given measured protein stability index, output Met if it is greater than or equal to 3 and Not met if not.

- recordSequence: "SSEVGPFVSKIRAVINDIANLPVP [AUH]"
  classLabel: "Not met"
- recordSequence: "LGVAVAVLGGFLYAVGGSDGTSPL [KLHL20]"
  classLabel: "Not met"
- recordSequence: "TLMEEVLLLGLKDREGYTSFWNDC [GOLPH3]"
  classLabel: "Not met"
- recordSequence: "TVGFLDEAIQPYRDRLRSRLEALS [TRIM15]"
  classLabel: "Not met"
- recordSequence: "TECEGDIQKNYECANFGDQGITMG [LOXL2]"
  classLabel: "Met"
- recordSequence: "VTPFDHNIVNLLTTCSTPLLNSPP [AUP1]"
  classLabel: "Not met"
- recordSequence: "ERWLKELRDHADSNIVIMLVGNKS [RAB11A]"
  classLabel: "Not met"
- recordSequence: "GRFKLSIPHTHLLATLDPLALDRE [WDR88]"
  classLabel: "Not met"
- recordSequence: "MSTFRQEDVEDHYEMGEELGSGQF [DAPK3]"
  classLabel: "Met"
- recordSequence: "GFSPSYEFFAVTRFLVGMMNGGMS [SLC22A15]"
  classLabel: "Not met"

###

Quick reference for protein stability index among some sequences
Assay: protein stability index of a GFP-peptide fusion (GPS, HEK-293T) (PSI 1-6); higher = more stable
Settings: treatment: DMSO; c terminus: a fixed tail appended

- recordSequence: "ECKQLSESQVKSLCEKAKEILTKE [PPP2CA]"
  protein stability index: 4.64
- recordSequence: "RDNGDPSLSSTATVLLVLEDEDPE [PCDHGC5]"
  protein stability index: 4.94
- recordSequence: "HFGWYLGWGDCVWLPYLYTLQGLY [DHCR7]"
  protein stability index: 3.09
- recordSequence: "EDTDPSTLSFNMSDKYPIQDTELP [EDARADD]"
  protein stability index: 5.11
- recordSequence: "QGLIRAGKVEAQHILASAPTDRNL [PYCR3]"
  protein stability index: 3.96
- recordSequence: "KKELEENFEKLRLSLQDQVDTLTF [MTUS2]"
  protein stability index: 3.94
- recordSequence: "GDESSLLLNAASTVARPVFTEYQA [RHOBTB3]"
  protein stability index: 3.57
- recordSequence: "CGFTVAQIITSLVFHLPFYSSNQL [OR10K2]"
  protein stability index: 3.15
- recordSequence: "GASSLPTTMNYPLWSQSYEDSSNQ [MAGEA3]"
  protein stability index: 4.42
- recordSequence: "NCKRERDARVKRKLRGPEPAATEA [TBX6]"
  protein stability index: 4.84
- recordSequence: "CQFRPPVRVNDGGGSHPSRPNSRH [VDR]"
  protein stability index: 4.55
- recordSequence: "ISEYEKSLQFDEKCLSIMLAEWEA [RPAIN]"
  protein stability index: 2.34
- recordSequence: "ELEKLAEKNIILEEKIQVLQQQNE [MTUS2]"
  protein stability index: 4.63

###

Collected protein stability index values appear next to each entry.
Assay: protein stability index of a GFP-peptide fusion (GPS, HEK-293T) (PSI 1-6); higher = more stable
Settings: treatment: DMSO; c terminus: a fixed tail appended

- recordSequence: "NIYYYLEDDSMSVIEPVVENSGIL [EFHC1]"
  protein stability index: 2.45
- recordSequence: "MGQTALAGGSSSTPTPQALYPDLS [SPSB2]"
  protein stability index: 4.46
- recordSequence: "SVVGTVLAATQAEKAVANFDRTEW [ZC2HC1C]"
  protein stability index: 3.26
- recordSequence: "TNVESQLAEIRSDLERQNQEYQVL [KRT33B]"
  protein stability index: 4.52
- recordSequence: "VAGSLAGAIAQSSIYPMEVLKTRM [SLC25A25]"
  protein stability index: 2.56
- recordSequence: "LHTDVGSVRMRRAEKSVAPSNTGS [NEK8]"
  protein stability index: 4.58
- recordSequence: "FNGELPNGRHKIPESQFPEFSTSL [SRPK2]"
  protein stability index: 3.51
- recordSequence: "HTLNNLVEKLLREEAEGARWTSYR [TRIM35]"
  protein stability index: 2.48
- recordSequence: "MAGGPPNTKAEMEMSLAEELNHGR [FATE1]"
  protein stability index: 5.17
- recordSequence: "PSGFLQISDALIRRVHLTEDQWGK [TRIM9]"
  protein stability index: 2.84
- recordSequence: "SKLASMSNDFKSVLEVRTENLKQQ [STX5]"
  protein stability index: 4.04
- recordSequence: "IVEDPQTKCEYMLNSMPKRLCLVC [ESRRG]"
  protein stability index: 2.39
- recordSequence: "LPSVPVSVPASDPRSCSSGPAGPY [PLEKHN1]"
  protein stability index: 4.35
- recordSequence: "LTELVQRRITYLQNPKDCSKAKKL [FUT8]"
  protein stability index: 3.99
- recordSequence: "AQLRLQLEVSQLEGSLQQPKAQSA [SMG5]"
  protein stability index: 3.66
- recordSequence: "FVAFAAKLWSFFIYLLRRQIRTVI [CTDNEP1]"
  protein stability index: 3.29
- recordSequence: "KFLMARKFDVLRAIELFHSYRETR [PTPN9]"
  protein stability index: 2.29
- recordSequence: "KATAAFSNVGTAISKKFGDMSYSI [TPD52L1]"
  protein stability index: 2.72
- recordSequence: "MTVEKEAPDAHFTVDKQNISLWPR [CD207]"
  protein stability index: 3.58
- recordSequence: "ERGPYRTRKHAHHCHKRRTRSCSS [CLK3]"
  protein stability index: 4.42
- recordSequence: "SNNKKNDEMQEVPNRVLAPEQSLK [SPANXN3]"
  protein stability index: 5.27
- recordSequence: "ILTEETEVKGTLEGDVCGVEPPGP [PBXIP1]"
  protein stability index: 5.14
- recordSequence: "PSVEQAADSLDFDETFLATSFLQH [FOXJ1]"
  protein stability index: 4.43
- recordSequence: "RELWLKFHEVGTEMIITKAGRRMF [TBX5]"
  protein stability index: 2.31
- recordSequence: "EDRKLPAPGADVKVHRARKTMPKS [EHMT1]"
  protein stability index: 5.28
- recordSequence: "FDDFVTNLIEKSASLDNGGCALTT [SOAT1]"
  protein stability index: 3.66
- recordSequence: "DPNSQVGACIVNSENKIVGIGYNG [DCTD]"
  protein stability index: 4.56
